Each entry below carries its recorded shrunken log2 fold change.
- Test system: Escherichia coli TOP10
- test.method.notes: shrunken log2 fold change of peptide-encoding DNA abundance (4.5 h post-induction vs induction); higher = less antimicrobial activity (less host growth inhibition)
- run.parameters: time post-induction: 4.5 h; library: site-saturation at positions 5, 18, 19, 20
No unit in the answer, only the number.

Query block: Checklist item: shrunken log2 fold change tested on Escherichia coli TOP10, entry RRIRARPPRLPRPRPRPYQAPRP , value?
Result block: -0.0488

---

- Tested on: Escherichia coli TOP10;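 further: peptides expressed intracellularly from a pBAD plasmid library in pooled LB shake-flask culture, induced with 0.3% L-arabinose, DNA abundance read by NGS, three biological replicates, DESeq2 with apeglm shrinkage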
- test.method.notes: shrunken log2 fold change of peptide-encoding DNA abundance (4.5 h post-induction vs induction); higher = less antimicrobial activity (less host growth inhibition)
- run.parameters: time post-induction: 4.5 h; library: site-saturation at positions 5, 18, 19, 20
Each entry below carries its recorded shrunken log2 fold change.
No unit in the answer, only the number.

Solved entries:
RRIRWRPPRLPRPRPRPKPPPRP 0.821
RRIRYRPPRLPRPRPRPTNTPRP -1.15
RRIRTRPPRLPRPRPRPMAIPRP -0.00284
RRIRQRPPRLPRPRPRPDFLPRP -0.338

Query block: Field request: shrunken log2 fold change | item: RRIRFRPPRLPRPRPRPPSGPRP
Result block: 0.422

Query block: Field request: shrunken log2 fold change | item: RRIRLRPPRLPRPRPRPKFDPRP
Result block: -0.115

Query block: Field request: shrunken log2 fold change | item: RRIRCRPPRLPRPRPRPMNPPRP
Result block: -0.24

Query block: Field request: shrunken log2 fold change | item: RRIRFRPPRLPRPRPRPHIFPRP
Result block: -0.021

Query block: Field request: shrunken log2 fold change | item: RRIRKRPPRLPRPRPRPQPSPRP
Result block: 0.567

Query block: Field request: shrunken log2 fold change | item: RRIRARPPRLPRPRPRPIEWPRP
Result block: 0.638

Query block: Field request: shrunken log2 fold change | item: RRIRARPPRLPRPRPRPEWYPRP
Result block: 0.137

Query block: Field request: shrunken log2 fold change | item: RRIRGRPPRLPRPRPRPRFDPRP
Result block: 0.382

Query block: Field request: shrunken log2 fold change | item: RRIRYRPPRLPRPRPRPHFSPRP
Result block: -0.256

Query block: Field request: shrunken log2 fold change | item: RRIRERPPRLPRPRPRPFNWPRP
Result block: 0.00763

Query block: Field request: shrunken log2 fold change | item: RRIRLRPPRLPRPRPRPKCMPRP
Result block: -0.152

Query block: Field request: shrunken log2 fold change | item: RRIRWRPPRLPRPRPRPAQPPRP
Result block: 0.236

Query block: Field request: shrunken log2 fold change | item: RRIRVRPPRLPRPRPRPWDVPRP
Result block: -0.0177

Data provenance is the supplement of paper PMC9112550.
